Each recorded value in this set is attributed to patent US20250099420A1.

Molecular target: UniProt:Q6DWJ6
Assay: GPR139 Agonist titration / agonist counterscreen assay (calcium detection, HEK-GPR139 cells)
Assay type: cell-based
Design: expressed in transfected cells; host or cells: HEK Aequorin cells, Maxcyte transient transfection
Conditions: GPR139 Agonist Activity
In this scheme, each record receives a class according to its Hill Slope; the ranges are Low (below 0.6), Medium (0.6 to below 1), High (1 or more)

These solved cases illustrate the format of a correct answer.
compound="CN(C)CCOc1cc(NC(=O)C2COc3ccccc3C2)ccc1-c1cn[nH]c1.O=C(O)C(F)(F)F.O=C(O)C(F)(F)F (stereo not drawn)" category_label=Low
compound=C=C1N=C(NC2CCCCCC2)c2ccccc2N1 category_label=High
compound="O=C(Cn1ncc2c1-c1ccccc1OC2)Nc1ccc(Cl)cc1 [SR-01000152099]" category_label=Medium
compound=O=C(CN1CCCN(Cc2ccc(F)cc2Cl)C1=O)NC1CCCC1 category_label=Medium
compound="CC1CCCCN1C(=O)CN1C(=O)C2(CCc3ccccc3C2)NC1=S (stereo not drawn)" category_label=Medium

(Q) Which bin should I file COc1ccc(CSc2nnc(-c3cccnc3)n2N)cc1 under?
(A) Low

(Q) Which bin should I file O=C(NCCn1ccc2ccccc21)c1cccc(Cl)c1 under?
(A) Medium

(Q) Which bin should I file O=C(Cn1ncn2c(cc3sccc32)c1=O)NCCc1ccc(Cl)cc1 under?
(A) High

(Q) Which bin should I file Cc1cc(=O)n2nc(NCc3ccccc3Cl)nc2[nH]1 under?
(A) High

(Q) Which bin should I file O=C(CN1CC(=O)N(Cc2ccc(O)cc2)C(c2ccccc2Cl)C1=O)NCc1ccco1 (stereo not drawn) under?
(A) Low

(Q) Which bin should I file Cc1ccc(CN2CCN(CC(=O)NCCc3ccc(Cl)cc3)C2=O)c(Cl)c1 under?
(A) Medium

(Q) Which bin should I file CC(C)(C)c1cn2cccc(OCc3ccc(Cl)c(Cl)c3)c2n1 under?
(A) Low

---

Target: UniProt Q6DWJ6
Test: GPR139 Agonist titration / agonist counterscreen assay (calcium detection, HEK-GPR139 cells)
Assay type: cell-based
Design: expressed in transfected cells; host or cells: HEK Aequorin cells, Maxcyte transient transfection
Settings: GPR139 Agonist Activity; based on logP
Experimental: GPR activity was assessed using a calcium detection assay. […] Negative control samples were treated with DMSO. […] Intracellular calcium was measured using Calcium 5.
READOUT TYPE: Lipophilic Efficiency (logP)
Lab note: jot down the number only; don't add units.

// solved cases for Lipophilic Efficiency (logP) follow
molecule=CCCCNC(=O)NNC(=O)CSc1cc(C)c(Br)cc1C subject_of_test="UniProt Q6DWJ6" value_reported=4.41
molecule=CCc1cccc(NC(=O)Cn2ncc3c2-c2ccccc2OC3)c1 subject_of_test="UniProt Q6DWJ6" value_reported=4.22
molecule="CCC1(c2ccc(Cl)cc2)NC(=O)N(CC(=O)N2CC3(C)CC2CC(C)(C)C3)C1=O (centres unmarked)" subject_of_test="UniProt Q6DWJ6" value_reported=3.67

(Q) Given CCCCN(C)C(=O)CCC(=O)NNC1Cc2ccccc2C2=CC(C)=CC21 (centres unmarked) , respond with its Lipophilic Efficiency (logP).
(A) 4.28

(Q) Given CC(C)(C)OC(=O)NNC(=O)COCc1ccc(Cl)c(Cl)c1 , respond with its Lipophilic Efficiency (logP).
(A) 3.62

(Q) Given CCc1cc(C2=C/C(=C/c3c(OC)ccc4ccccc34)C(=O)O2)cc(OC)c1OC , respond with its Lipophilic Efficiency (logP).
(A) 3.11

(Q) Given CN1CC[C@H](Oc2cc(-c3cn[nH]c3)ccc2NC(=O)N(Cc2ccccc2)C2CC2)C1.O=C(O)C(F)(F)F.O=C(O)C(F)(F)F , respond with its Lipophilic Efficiency (logP).
(A) 3.64

(Q) Given O=C(CN1CCN(Cc2ccccc2Cl)C1=O)NC1CCCCCCC1 , respond with its Lipophilic Efficiency (logP).
(A) 3.53

---

Molecular target: GPR139 (Homo sapiens)
Sequence (Q6DWJ6 whole entry): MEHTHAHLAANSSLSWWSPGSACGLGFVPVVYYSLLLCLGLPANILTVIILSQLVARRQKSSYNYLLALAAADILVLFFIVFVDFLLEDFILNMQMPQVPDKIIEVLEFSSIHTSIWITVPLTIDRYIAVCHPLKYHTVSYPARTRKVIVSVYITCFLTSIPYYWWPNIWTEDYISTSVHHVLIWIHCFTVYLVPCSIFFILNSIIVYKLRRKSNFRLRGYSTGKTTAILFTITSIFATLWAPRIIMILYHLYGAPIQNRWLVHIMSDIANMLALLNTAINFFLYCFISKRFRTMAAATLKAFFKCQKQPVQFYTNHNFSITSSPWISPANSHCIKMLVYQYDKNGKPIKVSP
Experiment: GPR139 Antagonist titration assay (calcium detection, HEK-GPR139 cells, vs EC80 of S-JNJ-63533054)
Label 1 (yes) when EC50 is strictly below 6 µM; otherwise label 0 (no).

compound="CC(=O)N1N=C(c2ccc(C)cc2)CC1c1ccccc1Cl (centres unmarked)" category_label="0 (no)"

(Q) Lab log: compare recorded EC50 with 6 µM; is it strictly lower for Nc1cccc(C(=O)Nc2cc(O)n(-c3c(Cl)cc(Cl)cc3Cl)n2)c1 ?
(A) 0 (no)

(Q) Lab log: compare recorded EC50 with 6 µM; is it strictly lower for CCOC(=O)C(CC)Oc1ccc2c(C)c(Cc3ccccc3)c(=O)oc2c1 (centres unmarked) ?
(A) 0 (no)

(Q) Lab log: compare recorded EC50 with 6 µM; is it strictly lower for Cc1cc(C)c(NC(=O)c2ccc(Br)cc2)c(C)c1NC(=O)c1ccc(Br)cc1 ?
(A) 1 (yes)

(Q) Lab log: compare recorded EC50 with 6 µM; is it strictly lower for O=C(NCCC1CCCCC1)N1c2ccccc2Sc2ccccc21 ?
(A) 1 (yes)

(Q) Lab log: compare recorded EC50 with 6 µM; is it strictly lower for COc1ccc(OC)c(NC2=C(Cl)C(=O)N(c3ccccc3C)C2=O)c1 ?
(A) 1 (yes)

(Q) Lab log: compare recorded EC50 with 6 µM; is it strictly lower for CCOC(=O)c1c(C)nc2c(c1-c1ccc(F)cc1)C(=O)CC(c1ccc(Cl)cc1)C2 (centres unmarked) ?
(A) 0 (no)

---

Target: GPR139 (Homo sapiens)
Assay: GPR139 Antagonist titration assay (calcium detection, HEK-GPR139 cells, vs EC80 of S-JNJ-63533054)
Conditions: activity relative to known control
READOUT TYPE: GPR139 Antagonist Activity Averaged Max % Response (±St. Dev.)

// solved cases for GPR139 Antagonist Activity Averaged Max % Response (±St. Dev.) follow
compound=Nc1cccc(C(=O)Nc2cc(O)n(-c3c(Cl)cc(Cl)cc3Cl)n2)c1 value_reported="80.63 ± 3.57%"
compound="CC1CCCC(NC(=O)c2cccc(NS(=O)(=O)c3ccc(Br)cc3)c2)C1C (stereo not shown)" value_reported="64.21 ± 3.85%"
compound=Cc1c(-c2cccc(NC(=O)C3c4ccccc4Oc4ccccc43)c2)nc2ncccn12 value_reported="88.60 ± 6.25%"

Field: next compound
(Q) Report GPR139 Antagonist Activity Averaged Max % Response (±St. Dev.) from GPR139 (Homo sapiens) testing of Cc1cccc(NC(=O)CCC(=O)OCc2ccc(Br)cc2)c1
(A) 102.3 ± 0.93%

---

Biological target: GPR139 (Homo sapiens)
Test: GPR139 Agonist titration / agonist counterscreen assay (calcium detection, HEK-GPR139 cells)
Type: cell-based
Design: expressed in transfected cells; host or cells: HEK Aequorin cells, Maxcyte transient transfection
Conditions: GPR139 Agonist Activity; based on logP
READOUT TYPE: Lipophilic Efficiency (logP)
Lab note: jot down the number only; don't add units.

// solved cases for Lipophilic Efficiency (logP) follow
molecule=Cc1cccc(NC(=O)NCCc2ccc3c(c2)CCCN3C)c1 readout_type="Lipophilic Efficiency (logP)" value_reported=3.21
molecule=Cc1cc(C(=O)CCC(=O)NNC(=O)c2ccc(COc3ccccc3)cc2)c(C)o1 readout_type="Lipophilic Efficiency (logP)" value_reported=3.74
molecule="O=C(CC1Nc2ccccc2NC1=O)NCC1COc2ccccc2O1 (stereo not drawn)" readout_type="Lipophilic Efficiency (logP)" value_reported=5.60
molecule=CCOc1ccc(C(=O)NCCn2ccc3ccccc32)cc1OCC readout_type="Lipophilic Efficiency (logP)" value_reported=5.58
molecule="COc1ccc(CC(=O)NNC(=O)C(C)Oc2ccc(Cl)cc2Cl)cc1 (stereo not drawn)" readout_type="Lipophilic Efficiency (logP)" value_reported=3.35

(Q) Given COc1cccc(C(=O)NNC(=O)COc2ccc(C)cc2Br)c1 , respond with its Lipophilic Efficiency (logP).
(A) 5.36

(Q) Given Cc1cccc(Cc2cnc(NC(=O)CC(C)C)s2)c1 , respond with its Lipophilic Efficiency (logP).
(A) 2.68

(Q) Given O=C(Cn1ncc2c(Cl)cccc21)NCCc1ccc(Cl)cc1 , respond with its Lipophilic Efficiency (logP).
(A) 3.06

(Q) Given Cc1cc(C)c(/C=C2/NC(=N)NC2=O)c(C)c1 , respond with its Lipophilic Efficiency (logP).
(A) 3.82

(Q) Given Cc1ccc(CN2CCCN(CC(=O)NC3CCCCCCC3)C2=O)c(Cl)c1 , respond with its Lipophilic Efficiency (logP).
(A) 3.54

(Q) Given Cc1ccc(CCNC(=O)Cn2nc(-c3ccccc3)ccc2=O)cc1 , respond with its Lipophilic Efficiency (logP).
(A) 3.85

(Q) Given Cc1ccc(C)c(C(=O)CCC(=O)NNC(=O)CSc2nc3ccccc3o2)c1 , respond with its Lipophilic Efficiency (logP).
(A) 4.38

(Q) Given CC1=CN=C(CCc2ccc(F)c3ccccc23)C1 , respond with its Lipophilic Efficiency (logP).
(A) 4.05

(Q) Given CC(Oc1ccc(O)cc1Cl)C(=O)NNC(=O)c1cccc(F)c1 (stereo not drawn) , respond with its Lipophilic Efficiency (logP).
(A) 5.48

(Q) Given O=C(COc1ccccc1Cl)NNC(=O)CSc1ccc2ccccc2c1 , respond with its Lipophilic Efficiency (logP).
(A) 4.08

(Q) Given O=C(Nc1ccc(-c2cn[nH]c2)cc1OCCN1CCCC1)C1COc2ccc(F)cc2C1.O=C(O)C(F)(F)F.O=C(O)C(F)(F)F (stereo not drawn) , respond with its Lipophilic Efficiency (logP).
(A) 3.26

(Q) Given Cc1ccc(SCC(=O)NNC(=O)c2cccs2)cc1 , respond with its Lipophilic Efficiency (logP).
(A) 4.23

(Q) Given Cc1ccc(CCNC(=O)CN2CCN(Cc3ccccc3Cl)C2=O)cc1 , respond with its Lipophilic Efficiency (logP).
(A) 3.74

(Q) Given Cc1ccc(NC(=O)NNC(=O)COc2ccc(Cl)cc2)c(C)c1 , respond with its Lipophilic Efficiency (logP).
(A) 3.82

(Q) Given COc1cccc(CNC(=O)Nc2ccc(-c3cn[nH]c3)cc2)c1 , respond with its Lipophilic Efficiency (logP).
(A) 4.08

(Q) Given O=C(COc1ccccc1F)NNC(=O)CSc1ccc2ccccc2c1 , respond with its Lipophilic Efficiency (logP).
(A) 4.99

(Q) Given O=C(Cn1ncc2c1-c1ccccc1OC2)Nc1ccccn1 , respond with its Lipophilic Efficiency (logP).
(A) 4.72

(Q) Given CC(C(=O)NCCc1ccc(Cl)cc1)n1ncn2cccc2c1=O (stereo not drawn) , respond with its Lipophilic Efficiency (logP).
(A) 6.86
